Test system: ATS95
method_notes: qHTS profiling for inhibitors of Plasmodium falciparum proliferation (AID 504749); further: nearly all actives have a fitted effect of over 60% in size
conditions: P. falciparum in erythrocytes, SYBR Green DNA, 72 h; series mostly up to 28.7 µM
Results filed as inconclusive are left out. The source made the active and inactive calls. The call rests on the fitted dose curve; in most records, active means well fitted inhibition curve with a large enough effect; inconclusive means small, poorly fitted or top-dose-only effect; inactive means flat fitted curve, though single readings scatter.
The reply should be one of these categories: YES for active, NO for inactive

Exam item: Name the outcome recorded for CC1=C(C(=O)OC(C)C)C(c2cccc([N+](=O)[O-])c2)C(C(=O)OC2CN(C(c3ccccc3)c3ccccc3)C2)=C(N)N1 (centres undefined) in the assay.
Marked response: YES

Exam item: Name the outcome recorded for CCOC(=O)OC(C)OC1=C(C(=O)Nc2ccccn2)N(C)S(=O)(=O)c2ccccc21 (centres undefined) in the assay.
Marked response: NO

Exam item: Name the outcome recorded for `CCOc1ccc(Cc2nccc3cc(OCC)c(OCC)cc23)cc1OCC` in the assay.
Marked response: NO

Exam item: Name the outcome recorded for `CC(C)(C)CC(C)(C)c1ccc(OCCOCC[N+](C)(C)Cc2ccccc2)cc1` in the assay.
Marked response: YES

Exam item: Name the outcome recorded for `CNCCC=C1c2ccccc2CCc2ccccc21` in the assay.
Marked response: YES

Exam item: Name the outcome recorded for `O=C1CCC(c2ccc(-n3ccnc3)cc2)=NN1` in the assay.
Marked response: NO

Exam item: Name the outcome recorded for `Cc1cc(O)c(C(C)C)cc1Cl` in the assay.
Marked response: NO

Exam item: Name the outcome recorded for `CCN(CC)C(=O)N1CCN(C)CC1` in the assay.
Marked response: NO

Exam item: Name the outcome recorded for CC(Cc1cccc(C(F)(F)F)c1)NCCOC(=O)c1ccccc1 (centres undefined) in the assay.
Marked response: NO

Exam item: Name the outcome recorded for `COc1cccc2c1C(=O)c1c(O)c3c(c(O)c1C2=O)C[C@@](O)(C(C)=O)C[C@@H]3O[C@H]1C[C@H](N)[C@H](O)[C@H](C)O1` in the assay.
Marked response: YES

Exam item: Name the outcome recorded for `C[C@@H](CN(C)C)CN1c2ccccc2Sc2ccccc21` in the assay.
Marked response: NO

Exam item: Name the outcome recorded for `C1CCc2nnnn2CC1` in the assay.
Marked response: NO

Exam item: Name the outcome recorded for `CCC(=O)c1c(O)cc(O)cc1O` in the assay.
Marked response: NO

Exam item: Name the outcome recorded for `COc1cc(C(=S)N2CCOCC2)cc(OC)c1OC` in the assay.
Marked response: NO

Exam item: Name the outcome recorded for `C#C[C@]1(OC(C)=O)CC[C@H]2[C@@H]3CCC4=C[C@@H](OC(C)=O)CC[C@@H]4[C@H]3CC[C@@]21C` in the assay.
Marked response: NO

Exam item: Name the outcome recorded for `CCOc1ccc2nc3cc(N)ccc3c(N)c2c1` in the assay.
Marked response: YES

Exam item: Name the outcome recorded for `Oc1c(Cl)cc(Cl)cc1Sc1cc(Cl)cc(Cl)c1O` in the assay.
Marked response: NO

Exam item: Name the outcome recorded for `CCOC(=O)n1ccn(C)c1=S` in the assay.
Marked response: NO

Exam item: Name the outcome recorded for `CCCCCCCCCCCCCCCC[N+](C)(C)CC` in the assay.
Marked response: YES

Exam item: Name the outcome recorded for `Cc1c(C)n(CCN(C)C)c2ccc(C(=O)OCCN(C)C)cc12` in the assay.
Marked response: NO

Exam item: Name the outcome recorded for `C[N+]1(CCCCC[N+]2(C)CCCC2)CCCC1` in the assay.
Marked response: NO

Exam item: Name the outcome recorded for `Cc1c(N(C)CS(=O)(=O)O)c(=O)n(-c2ccccc2)n1C` in the assay.
Marked response: NO

Exam item: Name the outcome recorded for `CCN1CCCC1=O` in the assay.
Marked response: NO

Exam item: Name the outcome recorded for `COc1c(C)c2c(c(O)c1C/C=C(\C)CCC(=O)O)C(=O)OC2` in the assay.
Marked response: YES

Exam item: Name the outcome recorded for CN1C2CCC1CC(OC(=O)c1c[nH]c3ccccc13)C2 (centres undefined) in the assay.
Marked response: NO

Exam item: Name the outcome recorded for `CN(C(=O)CN(CCO)CC(=O)N(C)C(C)(C)Cc1ccccc1)C(C)(C)Cc1ccccc1` in the assay.
Marked response: NO

Exam item: Name the outcome recorded for `CCCCCCc1ccc(O)cc1O` in the assay.
Marked response: NO

Exam item: Name the outcome recorded for `OCc1ccccc1O` in the assay.
Marked response: NO

Exam item: Name the outcome recorded for Cc1c(F)c(N2CCNC(C)C2)cc2c1c(=O)c(C(=O)O)cn2C1CC1 (centres undefined) in the assay.
Marked response: NO
